melting point by entry:

{"molecule": "c1ccc(-c2cncc(-c3ccccc3)n2)cc1 [Compound I-6]", "observable": "melting point", "endpoint.value": "88.5 to 90 °C"}
{"molecule": "c1ccc(-c2ccc(-c3ncccn3)cc2)cc1 [Compound I-8]", "observable": "melting point", "endpoint.value": "112 to 113 °C"}
{"molecule": "COc1ccc(-c2nnc(-c3ccccc3)c3ccccc23)cc1 [Compound I-13]", "observable": "melting point", "endpoint.value": "175 to 177 °C"}
{"molecule": "c1ccc(-c2nnc(-c3ccccc3)c3ccccc23)cc1 [Compound I-12]", "observable": "melting point", "endpoint.value": "203 to 205 °C"}

Input line: What value of melting point has been recorded for this entry: c1ccc(-c2ccnc(-c3ccccc3)n2)cc1 [Compound I-4]
Output line: 66 to 69 °C

* * *

melting point by entry:

# count of solved cases: 4
{"test.smiles": "c1ccc(-c2ccc(-c3ccccc3)nn2)cc1", "endpoint.value": "218 to 220 °C"}
{"test.smiles": "c1ccc(-c2ccc(-c3cnccn3)cc2)cc1", "endpoint.value": "177 to 178 °C"}
{"test.smiles": "c1ccc(-c2cc(-c3ccccc3)ncn2)cc1", "endpoint.value": "91 to 92 °C"}
{"test.smiles": "c1ccc(-c2cccc(-c3ncccn3)c2)cc1", "endpoint.value": "46 to 48 °C"}

Input line: What value of melting point has been recorded for this entry: c1ccc(-c2ccc(-c3ccccc3)nc2)cc1
Output line: 176 to 177 °C
